Reference for the values: patent US20230365526A1

System: HTT mRNA
test_description: RT-qPCR splicing assay monitoring HTT canonical (CJ) and alternative (AJ) junction mRNA in A673 or K562 cells
Type: cell-based
condition_details: increase in AJ mRNA, 24 hours compound treatment, top dose 10 uM, read-out: HTT AJ AC50
Please provide measured AC50 for the entries that follow.

For reference, reported AC50 for "COc1nc(-c2ccc(N(C)[C@H]3CCN[C@@H](C)C3)nn2)ccc1-n1cccn1" stands at > 10000 nM

For reference, reported AC50 for "C[C@@H]1C[C@H](N(C)c2ccc(-c3ccc(-c4cn[nH]c4)c(=O)[nH]3)nn2)CCN1" stands at > 10000 nM

For reference, reported AC50 for "CC(C)Oc1nc(-c2ccc(N(C)[C@@H]3C[C@H]4CC[C@@H](C3)N4)nn2)ccc1-c1cn[nH]c1" stands at 1000 to 10000 nM

For reference, reported AC50 for "COc1nc(-c2ccc(NC3CCNCC3)nn2)ccc1-n1cccn1" stands at > 10000 nM

For reference, reported AC50 for "CN(c1ccc(-c2ccc(-c3cn[nH]c3)c(C#N)n2)nn1)[C@@H]1C[C@H]2CC[C@@H](C1)N2" stands at 100 to 1000 nM

For reference, reported AC50 for "CN(c1ccc(-c2ccc(-n3cccn3)c(=O)[nH]2)nn1)[C@@H]1C[C@H]2CC[C@@H](C1)N2" stands at 1000 to 10000 nM

For reference, reported AC50 for "COc1nc(-c2ccc(OC3CC(C)(C)NC(C)(C)C3)nn2)ccc1-c1cn[nH]c1" stands at 100 to 1000 nM

For reference, reported AC50 for "CN(c1ccc(-c2ccc(-c3cn[nH]c3)c(OC3CC3)n2)nn1)[C@@H]1C[C@H]2CC[C@@H](C1)N2" stands at < 100 nM

For reference, reported AC50 for "COc1nc(-c2ccc(N(C)C3CC(C)(C)NC(C)(C)C3)nn2)ccc1-n1cccn1" stands at 100 to 1000 nM

For reference, reported AC50 for "COc1cc(-c2ccc(N(C)[C@@H]3C[C@H]4CC[C@@H](C3)N4)nn2)ncc1-c1cn[nH]c1" stands at > 10000 nM

For reference, reported AC50 for "Cc1nc(-c2ccc(N(C)[C@@H]3C[C@H]4CC[C@@H](C3)N4)nn2)ccc1-c1cn[nH]c1" stands at 1000 to 10000 nM

For reference, reported AC50 for "COc1nc(-c2ccc(N(C)[C@@H]3CCN[C@H](C)C3)nn2)ccc1-c1cn[nH]c1" stands at 1000 to 10000 nM

For reference, reported AC50 for "COc1nc(-c2ccc(NC3CCNCC3)nn2)ccc1-c1cnn(C)c1" stands at 1000 to 10000 nM
